Test: protein stability index of a GFP-peptide fusion (yeast GPS) (PSI 1-4); higher = more stable; sorted into four equal gates, so the index is relative within each strain
Settings: doa10∆
Listing of recorded protein stability index by entry.

> print(dat)
              sequence.text          outcome.measure  value.measured
1  AGQIPTGWNAKTYGISD [FAS2]  protein stability index            1.68

I would be grateful if you could share the reported protein stability index for IGDTIADGPTMREITET [RPO21] . 3.48

I would be grateful if you could share the reported protein stability index for REIDALKKQLHVSHEAM [YIL149C/MLP2] . 2.88

I would be grateful if you could share the reported protein stability index for SDNSVSVRLQVTKILPH [IRR1] . 2.86

I would be grateful if you could share the reported protein stability index for VMPVPNVRSSVLQKVIE [SKP1] . 2.33

I would be grateful if you could share the reported protein stability index for FLTGQFASNKKINDESS [YML103C/NUP188] . 2.23

I would be grateful if you could share the reported protein stability index for LAKSKASLTAARTAANS [RPN6] . 2.5

I would be grateful if you could share the reported protein stability index for TFAVILFLIIQCYKIYD [YMR129W/POM152] . 1.35

I would be grateful if you could share the reported protein stability index for NGGLIHVVTREKGPQVC [RPO21] . 2.93

I would be grateful if you could share the reported protein stability index for ISVTRQVVLGGTSKYLI [SMC2] . 2.65

I would be grateful if you could share the reported protein stability index for TVMYQRRSKMNPLWNAI [PRE4] . 2.83

I would be grateful if you could share the reported protein stability index for HPFIPLLKEKPNALKPL [RRP6] . 2.54

I would be grateful if you could share the reported protein stability index for TRINGLNSNNSIIGNKN [REC8] . 3.2

I would be grateful if you could share the reported protein stability index for VDPARRQILFKYPMYMQ [MED6] . 1.54

I would be grateful if you could share the reported protein stability index for MSTESALSYAALILADS [RPP1A] . 1.75

I would be grateful if you could share the reported protein stability index for YKWTQGINNLSEIWDVS [PRP8] . 3.03

I would be grateful if you could share the reported protein stability index for NWAKFTATASLGVIHKG [RPN2] . 1.81

I would be grateful if you could share the reported protein stability index for RDDALVVETITSLLNKV [RRP42] . 2.88
